Where these numbers come from: patent US6914045B2

Test system: Staphylococcus sp.
Experiment: in vitro antibacterial evaluation, MIC by broth dilution
Assay type: cell-based
Settings: broth dilution, 18 hours at 35° C.; strain GC 3053
Description: Methods for in vitro Antibacterial Evaluation (Table 1) […]
Quantity Measured: MIC Staphylococcus aureus (GC 3053) (mg/L)
Please give a number only; it is taken to be in mg/L.

Query string: Provide measured MIC Staphylococcus aureus (GC 3053) value, entry: Cc1ccc(COCC2OC(OC3C(CO)OC(Oc4ccc(CC5NC(=O)C(C(C)c6ccccc6)NC(=O)CNC(=O)C(CO)NC(=O)C(C(O)C6CNC(=N)N6C6OC(CO)C(O)C(O)C6O)NC(=O)C(C(O)C6CNC(=N)N6)NC5=O)cc4)C(O)C3O)C(O)C(O)C2O)cc1 (centres unmarked)
Result string: 2

----------
system: Escherichia coli; assay: in vitro antibacterial evaluation, MIC by broth dilution; assay type: cell-based; conditions: 18 hours at 35° C., strain GC 4559
Please go through the items and note down their MIC Escherichia coli (GC 4559).
Just the number please, in µg/mL, no unit attached.

Query string: Item Cc1cccc(C2OCC3OC(OC4C(CO)OC(Oc5ccc(CC6NC(=O)C(C(C)c7ccccc7)NC(=O)CNC(=O)C(CO)NC(=O)C(C(O)C7CNC(=N)N7C7OC(CO)C(O)C(O)C7O)NC(=O)C(C(O)C7CNC(=N)N7)NC6=O)cc5)C(O)C4O)C(O)C(O)C3O2)c1 (stereo not drawn) [Example 135] : provide MIC Escherichia coli (GC 4559)
Result string: 32

Query string: Respond only with MIC Escherichia coli (GC 4559) recorded for CC(c1ccccc1)C1NC(=O)CNC(=O)C(CO)NC(=O)C(C(O)C2CNC(=N)N2C2OC(CO)C(O)C(O)C2O)NC(=O)C(C(O)C2CNC(=N)N2)NC(=O)C(Cc2ccc(OC3OC(CO)C(OC4OC5COC(CC6CCN(C(=O)OCc7ccccc7)CC6)OC5C(O)C4O)C(O)C3O)cc2)NC1=O (stereo not drawn) [Example 113]
Result string: 32

----------
system: Enterococcus sp.; experiment: in vitro antibacterial evaluation, MIC by broth dilution; format: cell-based; conditions: broth dilution, inoculum 5×10^5 CFU/mL, 18 hours at 35° C.; strain GC 2243
Note to self: MIC Enterococcus faecium (GC 2243) under 2 µg/mL means true (1), ties and anything higher get false (0).

Query string: Please indicate whether the reported MIC Enterococcus faecium (GC 2243) of CCCC(C)C1OCC2OC(OC3C(CO)OC(Oc4ccc(CC5NC(=O)C(C(C)c6ccc(Cl)cc6)NC(=O)CNC(=O)C(CO)NC(=O)C(C(O)C6CNC(=N)N6C6OC(CO)C(O)C(O)C6O)NC(=O)C(C(O)C6CNC(=N)N6)NC5=O)cc4)C(O)C3O)C(O)C(O)C2O1 (centres unmarked) is strictly below 2 µg/mL.
Result string: true (1)

Query string: Given CC(c1ccccc1)C1NC(=O)CNC(=O)C(CO)NC(=O)C(C(O)C2CN(Cc3ccc(C(F)(F)F)cc3)C(=N)N2C2OC(CO)C(O)C(O)C2O)NC(=O)C(C(O)C2CNC(=N)N2)NC(=O)C(Cc2ccc(OC3OC(CO)C(OC4OC5COC6(OC5C(O)C4O)C4CC5CC(C4)CC6C5)C(O)C3O)cc2)NC1=O (centres unmarked) , is recorded MIC Enterococcus faecium (GC 2243) strictly lower than 2 µg/mL?
Result string: false (0)

Query string: For CC(C)=CCOc1cccc(C2OCC3OC(OC4C(CO)OC(Oc5ccc(CC6NC(=O)C(C(C)c7ccccc7)NC(=O)CNC(=O)C(CO)NC(=O)C(C(O)C7CNC(=N)N7C7OC(CO)C(O)C(O)C7O)NC(=O)C(C(O)C7CNC(=N)N7)NC6=O)cc5)C(O)C4O)C(O)C(O)C3O2)c1 (centres unmarked) , is the recorded MIC Enterococcus faecium (GC 2243) below the cut-off of 2 µg/mL?
Result string: false (0)

Query string: Please state whether MIC Enterococcus faecium (GC 2243) is below 2 µg/mL for CC(c1ccccc1)C1NC(=O)CNC(=O)C(CO)NC(=O)C(C(O)C2CN(c3nc4ccccc4o3)C(=N)N2C2OC(CO)C(O)C(O)C2O)NC(=O)C(C(O)C2CNC(=Nc3nc4ccccc4o3)N2)NC(=O)C(Cc2ccc(OC3OC(CO)C(OC4OC5COC6(OC5C(O)C4O)C4CC5CC(C4)CC6C5)C(O)C3O)cc2)NC1=O (centres unmarked)
Result string: false (0)

Query string: Hello, I'm reviewing records and need to know if MIC Enterococcus faecium (GC 2243) of COc1ccc2cc(COCC3OC(OC4C(CO)OC(Oc5ccc(CC6NC(=O)C(C(C)c7ccccc7)NC(=O)CNC(=O)C(CO)NC(=O)C(C(O)C7CNC(=N)N7C7OC(CO)C(O)C(O)C7O)NC(=O)C(C(O)C7CNC(=N)N7)NC6=O)cc5)C(O)C4O)C(O)C(O)C3O)ccc2c1 (centres unmarked) is below 2 µg/mL. Could you check?
Result string: false (0)

Query string: Determine whether this compound shows MIC Enterococcus faecium (GC 2243) lower than 2 µg/mL (ties excluded): N=C1NCC(C(O)C2NC(=O)C(CC3CCC(OC4OC(CO)C(OC5OC6COC7(OC6C(O)C5O)C5CC6CC(C5)CC7C6)C(O)C4O)CC3)NC(=O)C(CC3CCCCC3)NC(=O)CNC(=O)C(CO)NC(=O)C(C(O)C3CNC(=N)N3C3OC(CO)C(O)C(O)C3O)NC2=O)N1 (single isomer, unassigned)
Result string: false (0)

Query string: Determine whether this compound shows MIC Enterococcus faecium (GC 2243) lower than 2 µg/mL (ties excluded): Cc1ccc(Oc2cccc(C3OCC4OC(OC5C(CO)OC(Oc6ccc(CC7NC(=O)C(C(C)c8ccccc8)NC(=O)CNC(=O)C(CO)NC(=O)C(C(O)C8CNC(=N)N8C8OC(CO)C(O)C(O)C8O)NC(=O)C(C(O)C8CNC(=N)N8)NC7=O)cc6I)C(O)C5O)C(O)C(O)C4O3)c2)cc1 (centres unmarked)
Result string: false (0)

Query string: Quick check: does CC(c1ccccc1)C1NC(=O)CNC(=O)C(CO)NC(=O)C(C(O)C2CNC(=N)N2C2OC(CO)C(O)C(O)C2O)NC(=O)C(C(O)C2CNC(=N)N2)NC(=O)C(Cc2ccc(OC3OC(CO)C(OC4OC5COC(c6cccc(Oc7ccccc7)c6)OC5C(O)C4O)C(O)C3O)cc2)NC1=O (centres unmarked) have MIC Enterococcus faecium (GC 2243) under 2 µg/mL?
Result string: false (0)

Query string: I wonder whether CC(c1ccccc1)C1NC(=O)CNC(=O)C(CO)NC(=O)C(C(O)C2CNC(=N)N2C2OC(CO)C(O)C(O)C2O)NC(=O)C(C(O)C2CNC(=N)N2)NC(=O)C(Cc2ccc(OC3OC(CO)C(OC4OC5COC6(CC7CCC6(C)C7(C)C)OC5C(O)C4O)C(O)C3O)cc2)NC1=O (centres unmarked) has MIC Enterococcus faecium (GC 2243) below 2 µg/mL. Can you tell?
Result string: true (1)

Query string: Please let me know if CC(C1CCCCC1)C1NC(=O)CNC(=O)C(CO)NC(=O)C(C(O)C2CNC(=N)N2C2OC(CO)C(O)C(O)C2O)NC(=O)C(C(O)C2CNC(=N)N2)NC(=O)C(Cc2ccc(OC3OC(CO)C(OC4OC5COC(c6ccccc6)OC5C(O)C4O)C(O)C3O)cc2)NC1=O (centres unmarked) shows MIC Enterococcus faecium (GC 2243) below 2 µg/mL.
Result string: true (1)

Query string: Take the compound CC(c1ccccc1)C1NC(=O)CNC(=O)C(CO)NC(=O)C(CC2CNC(=N)N2C2OC(CO)C(O)C(O)C2O)NC(=O)C(CC2CNC(=N)N2)NC(=O)C(Cc2ccc(OC3OC(CO)C(OC4OC5COC6(OC5C(O)C4O)C4CC5CC(C4)CC6C5)C(O)C3O)cc2)NC1=O (centres unmarked) and say whether its MIC Enterococcus faecium (GC 2243) is less than 2 µg/mL.
Result string: false (0)

Query string: Is the reported MIC Enterococcus faecium (GC 2243) for CC(c1ccccc1)C1NC(=O)CNC(=O)C(CO)NC(=O)C(C(O)C2CNC(=N)N2C2OC(CO)C(O)C(O)C2O)NC(=O)C(C(O)C2CNC(=N)N2)NC(=O)C(Cc2ccc(OC3OC(CO)C(OC4OC(COCc5ccc(OCc6ccccc6)cc5)C(O)C(O)C4O)C(O)C3O)cc2)NC1=O (centres unmarked) strictly below 2 µg/mL?
Result string: false (0)
